System: CCRIS mutagenicity, Ames/micronucleus/aberration tests
Assay: CCRIS mutagenicity studies
Conditions: Test System: AMES SALMONELLA TYPHIMURIUM; Strain/Indicator: TA7004; Metabolic Activation: NONE; Method: FLUCTUATION (MICROTITER)
Activity calls are given as the source filed them. How the calls were made is not given here.
Possible outcomes: active, inactive

                                   molecule                               studytarget  category
0  Nc1ncn([C@@H]2O[C@H](CO)[C@@H](O)[C@H]2O)c(=O)n1  CCRIS mutagenicity, Ames/micronucleus/aberration tests    active
1                                CC(C)CON=O  CCRIS mutagenicity, Ames/micronucleus/aberration tests  inactive
2                                   CS(C)=O  CCRIS mutagenicity, Ames/micronucleus/aberration tests  inactive
3                         CC(C)(OO)c1ccccc1  CCRIS mutagenicity, Ames/micronucleus/aberration tests    active
4                   Nc1ccc(Oc2ccc(N)cc2)cc1  CCRIS mutagenicity, Ames/micronucleus/aberration tests  inactive
5        CCC1CO1 (configuration not stated)  CCRIS mutagenicity, Ames/micronucleus/aberration tests    active
6  O=c1c(O)c(-c2ccc(O)c(O)c2)oc2cc(O)cc(O)c12  CCRIS mutagenicity, Ames/micronucleus/aberration tests    active

----------
Tested on: CCRIS mutagenicity, Ames/micronucleus/aberration tests
Test: CCRIS mutagenicity studies
Conditions: Test System: AMES SALMONELLA TYPHIMURIUM; Strain/Indicator: TA98; Metabolic Activation: S-9; Method: STANDARD PLATE
Calls of active or inactive are those of the source. No rule for the calls is given here.
Possible outcomes: active, inactive

                                    compound                               studytarget  category
 0       CC(C)Oc1ccc2c(=O)c(-c3ccccc3)coc2c1  CCRIS mutagenicity, Ames/micronucleus/aberration tests  inactive
 1                  c1ccc(-c2nc3ccccc3o2)cc1  CCRIS mutagenicity, Ames/micronucleus/aberration tests  inactive
 2                         CCSCCSP(=S)(OC)OC  CCRIS mutagenicity, Ames/micronucleus/aberration tests  inactive
 3              CCCCOC(=O)CCCCCCCCC(=O)OCCCC  CCRIS mutagenicity, Ames/micronucleus/aberration tests  inactive
 4  C[n+]1ccn(COCCC(C)(C)[N+](=O)[O-])c1/C=N/O  CCRIS mutagenicity, Ames/micronucleus/aberration tests  inactive
 5  N#Cc1ccc(/C=C/c2ccc([N+](=O)[O-])cc2)cc1  CCRIS mutagenicity, Ames/micronucleus/aberration tests    active
 6                              [Cl][Cd][Cl]  CCRIS mutagenicity, Ames/micronucleus/aberration tests  inactive
 7                             Oc1ccc(Cl)cc1  CCRIS mutagenicity, Ames/micronucleus/aberration tests    active
 8                                Cc1ccccc1N  CCRIS mutagenicity, Ames/micronucleus/aberration tests  inactive
 9  Nc1ccn([C@@H]2O[C@H](CO)[C@@H](O)C2O)c(=O)n1 (stereo partly drawn)  CCRIS mutagenicity, Ames/micronucleus/aberration tests  inactive
10      CCN(CC)C(=O)/C(Cl)=C(\C)OP(=O)(OC)OC  CCRIS mutagenicity, Ames/micronucleus/aberration tests  inactive
11                                  C1CSCCS1  CCRIS mutagenicity, Ames/micronucleus/aberration tests  inactive
12              CC[C@@H](CO)NCCN[C@@H](CC)CO  CCRIS mutagenicity, Ames/micronucleus/aberration tests  inactive
13      CC(=O)Nc1ccc(Oc2c(Cl)cc(Cl)cc2Cl)cc1  CCRIS mutagenicity, Ames/micronucleus/aberration tests  inactive
14  N#Cc1cccc(/C=C/c2ccc([N+](=O)[O-])cc2)c1  CCRIS mutagenicity, Ames/micronucleus/aberration tests    active
15                    CN(C)C(=S)SSC(=S)N(C)C  CCRIS mutagenicity, Ames/micronucleus/aberration tests  inactive
16               Nc1ccc(/C=C/c2cccc(N)c2)cc1  CCRIS mutagenicity, Ames/micronucleus/aberration tests    active
17                        CCOP(=S)(OCC)SCSCC  CCRIS mutagenicity, Ames/micronucleus/aberration tests  inactive
18                  COC(=O)Nc1nc2ccccc2[nH]1  CCRIS mutagenicity, Ames/micronucleus/aberration tests  inactive
19                  Nc1nc2n[nH]nc2c(=O)[nH]1  CCRIS mutagenicity, Ames/micronucleus/aberration tests  inactive
20                  c1ccc2sc(SN3CCOCC3)nc2c1  CCRIS mutagenicity, Ames/micronucleus/aberration tests  inactive
21            CC(C)(C)c1cc(-c2ccccc2)ccc1N=O  CCRIS mutagenicity, Ames/micronucleus/aberration tests    active
22  Cc1cc(Cc2cc(C)cc(C(C)(C)C)c2O)c(O)c(C(C)(C)C)c1  CCRIS mutagenicity, Ames/micronucleus/aberration tests  inactive
23                         O=Nc1ccc2ccccc2c1  CCRIS mutagenicity, Ames/micronucleus/aberration tests    active
24  COC(=O)c1cc(OC)c2c(c1-c1c(C(=O)OC)cc(OC)c3c1OCO3)OCO2  CCRIS mutagenicity, Ames/micronucleus/aberration tests  inactive
25     Nc1ccc(-c2ccc(N)c([N+](=O)[O-])c2)cc1  CCRIS mutagenicity, Ames/micronucleus/aberration tests    active
26       CC/C(=C(/CC)c1ccc(O)cc1)c1ccc(O)cc1  CCRIS mutagenicity, Ames/micronucleus/aberration tests  inactive
27               Cc1ccc(/C=C/c2ccc(N)cc2)cc1  CCRIS mutagenicity, Ames/micronucleus/aberration tests    active

----------
System: CCRIS mutagenicity, Ames/micronucleus/aberration tests
Assay: CCRIS mutagenicity studies
Conditions: Test System: AMES SALMONELLA TYPHIMURIUM; Strain/Indicator: TA100; Metabolic Activation: RAT, LIVER, S-9, AROCLOR 1254 (10%); Method: PREINCUBATION
Activity calls are given as the source filed them. The rule behind the calls is not given here.
Possible outcomes: yes (active), no (inactive)

                                    compound                               studytarget  category
 0                          C=CCc1ccc(OC)cc1  CCRIS mutagenicity, Ames/micronucleus/aberration tests        no
 1                        CC(=O)Nc1ccc(O)cc1  CCRIS mutagenicity, Ames/micronucleus/aberration tests        no
 2                   Nc1ccc(Oc2ccc(N)cc2)cc1  CCRIS mutagenicity, Ames/micronucleus/aberration tests       yes
 3                   CC(C)(C)OOC(=O)c1ccccc1  CCRIS mutagenicity, Ames/micronucleus/aberration tests        no
 4                                CC/C=C/C#N  CCRIS mutagenicity, Ames/micronucleus/aberration tests        no
 5                                CC(C)C(C)C  CCRIS mutagenicity, Ames/micronucleus/aberration tests        no
 6                                      OCCO  CCRIS mutagenicity, Ames/micronucleus/aberration tests        no
 7                            Cc1ccc(C#N)cc1  CCRIS mutagenicity, Ames/micronucleus/aberration tests        no
 8                               N#C/C=C/C#N  CCRIS mutagenicity, Ames/micronucleus/aberration tests        no
 9  COc1ccc([N+](=O)[O-])cc1N=Nc1c(O)c(C(=O)Nc2cccc([N+](=O)[O-])c2)cc2ccccc12  CCRIS mutagenicity, Ames/micronucleus/aberration tests       yes
10          CC(O)c1ccccc1 (stereo not given)  CCRIS mutagenicity, Ames/micronucleus/aberration tests        no
11                CN(C)CCN(Cc1ccsc1)c1ccccn1  CCRIS mutagenicity, Ames/micronucleus/aberration tests        no
12  CC(C)CCCCCCCOC(=O)c1ccccc1C(=O)OCCCCCCCC(C)C  CCRIS mutagenicity, Ames/micronucleus/aberration tests        no
13                        CC(=O)Nc1cccc(N)c1  CCRIS mutagenicity, Ames/micronucleus/aberration tests        no
14               Cc1ccccc1N=Nc1ccc(N(C)C)cc1  CCRIS mutagenicity, Ames/micronucleus/aberration tests        no
